Test system: Caco-2
Conditions: human
We begin with a simple list: items and their reported Caco-2 PappA-B.
Outcome Measure: Caco-2 PappA-B

>>> test_value("Cn1cc(-c2ccc(-c3cnc(N)c4ccc(C(=O)NC5CC5)cc34)cc2)cn1 [Compound 64]")
"32.5 × 10^–6 cm/s"
>>> test_value("Cn1cc(-c2ccc(-c3cnc(N)c4ccc(C(=O)N5CC(F)(F)C5)cc34)cc2)cn1 [Compound 61]")
"39.7 × 10^–6 cm/s"
>>> test_value("Cn1cc(-c2ccc(-c3cnc(N)c4ccc(C(=O)N5CCC5)cc34)cc2)cn1 [Compound 58]")
"27.2 × 10^–6 cm/s"

====

Target: aldehyde oxidase (Homo sapiens, UniProt Q06278)
Sequence (Q06278 whole entry): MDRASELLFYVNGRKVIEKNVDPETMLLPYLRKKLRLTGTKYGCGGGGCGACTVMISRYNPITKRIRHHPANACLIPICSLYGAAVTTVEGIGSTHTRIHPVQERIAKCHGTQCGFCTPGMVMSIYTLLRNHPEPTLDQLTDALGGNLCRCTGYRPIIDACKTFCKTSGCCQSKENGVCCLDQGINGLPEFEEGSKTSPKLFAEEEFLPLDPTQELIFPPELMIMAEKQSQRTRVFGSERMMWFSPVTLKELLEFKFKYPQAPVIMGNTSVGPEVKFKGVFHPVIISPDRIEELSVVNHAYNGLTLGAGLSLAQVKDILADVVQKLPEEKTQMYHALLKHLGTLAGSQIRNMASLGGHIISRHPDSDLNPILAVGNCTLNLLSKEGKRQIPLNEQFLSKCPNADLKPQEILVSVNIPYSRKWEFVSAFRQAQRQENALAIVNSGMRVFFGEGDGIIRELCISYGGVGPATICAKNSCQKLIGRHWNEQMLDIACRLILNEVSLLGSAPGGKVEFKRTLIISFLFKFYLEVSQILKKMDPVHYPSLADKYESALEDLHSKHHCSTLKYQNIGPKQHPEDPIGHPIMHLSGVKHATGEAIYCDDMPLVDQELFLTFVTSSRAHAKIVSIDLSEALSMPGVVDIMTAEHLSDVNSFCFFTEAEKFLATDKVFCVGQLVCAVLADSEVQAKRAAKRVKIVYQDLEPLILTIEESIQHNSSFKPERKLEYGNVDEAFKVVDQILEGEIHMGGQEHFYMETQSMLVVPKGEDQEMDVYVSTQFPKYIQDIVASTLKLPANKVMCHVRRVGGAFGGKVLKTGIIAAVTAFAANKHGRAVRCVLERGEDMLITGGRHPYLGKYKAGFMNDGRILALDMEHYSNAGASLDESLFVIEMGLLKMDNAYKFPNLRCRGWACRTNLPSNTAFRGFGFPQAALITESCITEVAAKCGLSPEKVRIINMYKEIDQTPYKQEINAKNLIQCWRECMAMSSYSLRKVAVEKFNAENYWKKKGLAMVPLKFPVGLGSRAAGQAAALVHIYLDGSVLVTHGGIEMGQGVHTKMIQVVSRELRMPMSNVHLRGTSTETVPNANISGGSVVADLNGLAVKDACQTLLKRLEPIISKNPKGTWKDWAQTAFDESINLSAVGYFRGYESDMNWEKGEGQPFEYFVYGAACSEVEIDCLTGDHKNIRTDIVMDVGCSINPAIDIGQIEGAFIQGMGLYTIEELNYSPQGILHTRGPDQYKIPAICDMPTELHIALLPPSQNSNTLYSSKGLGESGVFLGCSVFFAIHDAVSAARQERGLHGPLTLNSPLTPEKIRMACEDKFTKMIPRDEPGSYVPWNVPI
Details: human, cytosol, 0.75 h, 1 µM
We begin with a simple list: items and their reported % of parent compd remaining after 45 min.
Outcome Measure: % of parent compd remaining after 45 min (%)

>>> test_value("COC1CN(C(=O)c2ccc3cncc(-c4ccc(-c5cnn(C)c5)cc4)c3c2)C1")
1
>>> test_value("COC1CN(C(=O)c2ccc3cncc(-c4ccc5nn(CC(C)(C)O)cc5c4)c3n2)C1")
0
>>> test_value("COC1CN(C(=O)c2ccc3cncc(-c4ccc(-c5cnn(C)c5)cc4)c3n2)C1")
0
>>> test_value("COC1CN(C(=O)c2ccc3cncc(-c4ccc(-c5cnn(CC(C)(C)O)c5)cc4)c3c2)C1")
0
>>> test_value("CNC(=O)c1ccc2cncc(-c3ccc4c(c3)CS(=O)(=O)N4)c2n1")
20
>>> test_value("Cn1cc(-c2ccc(-c3cncc4ccc(-c5ncco5)nc34)cc2)cn1")
0
>>> test_value("CC(C)(O)Cn1cc(-c2ccc(-c3cncc4ccc(C(N)=O)cc34)cc2)cn1")
7
>>> test_value("Cn1cc(-c2ccc(-c3cncc4ccc(-c5ncco5)cc34)cc2)cn1")
3
>>> test_value("COC1CN(C(=O)c2ccc3cncc(-c4ccc5nn(CC(C)(C)O)cc5c4)c3c2)C1")
0

====

Assay: in vitro
Conditions: human, microsomes
We begin with a simple list: items and their reported microsomal CLint.
Outcome Measure: microsomal CLint

>>> test_value("Cn1cc(-c2ccc(-c3cnc(N)c4ccc(C(=O)N5CCC5)cc34)cc2)cn1")
"< 10 µL/min/mg"
>>> test_value("Cn1cc(-c2ccc(-c3cnc(N)c4ccc(C(=O)N5CCNCC5)nc34)cc2)cn1")
"< 10 µL/min/mg"
>>> test_value("CNC(=O)c1ccc2cncc(-c3ccc4c(c3)CS(=O)(=O)N4)c2n1")
"< 10 µL/min/mg"

====

We begin with a simple list: items and their reported microsomal CLint at 1 µM.
Experiment: in vitro
Conditions: human, microsomes
Outcome Measure: microsomal CLint at 1 µM (µL/min/mg)

>>> test_value("COC1(C)CN(C(=O)c2ccc3c(N)ncc(-c4ccc(-c5cnn(C)c5)cc4)c3c2)C1")
64
>>> test_value("CNC(=O)c1ccc2cncc(-c3ccc4c(cnn4C)c3)c2n1")
116
>>> test_value("Cn1cc(-c2ccc(-c3cnc(N)c4ccc(C(=O)N5CC(C)(F)C5)nc34)cc2)cn1")
20
>>> test_value("CC(=O)Nc1ccc2cncc(-c3ccc(-c4cnn(C)c4)cc3)c2n1")
26
>>> test_value("Cn1cc(-c2ccc(-c3cncc4ccc(C(=O)N5CCOCC5)nc34)cc2)cn1")
41
>>> test_value("Cn1cc(-c2ccc(-c3cncc4ccc(S(N)(=O)=O)cc34)cc2)cn1")
47
>>> test_value("Cn1cc(-c2ccc(-c3cncc4ccc(C(=O)N5CCCC5)nc34)cc2)cn1")
38
>>> test_value("COC1CN(C(=O)c2ccc3cncc(-c4ccc(-c5cnn(C)c5)cc4)c3c2)C1")
56
>>> test_value("Cn1cc(-c2ccc(-c3cncc4ccc(-c5ccn(C)n5)nc34)cc2)cn1")
45
>>> test_value("Cn1cc(-c2ccc(-c3cnc(N)c4ccc(C(=O)N5CCC5)nc34)cc2)cn1")
24
>>> test_value("COC1CN(C(=O)c2ccc3c(N)ncc(-c4ccc(-c5cnn(C)c5)cc4)c3n2)C1")
61
>>> test_value("CNC(=O)c1ccc2cncc(-c3ccc4c(c3)CS(=O)(=O)N4C)c2n1")
15

====

We begin with a simple list: items and their reported microsomal CLint.
Assay: in vitro
Settings: rat, microsomes
Outcome Measure: microsomal CLint

>>> test_value("Cn1cc(-c2ccc(-c3cncc4ccc(-c5nccn5C)nc34)cc2)cn1")
"> 1000 µL/min/mg"
>>> test_value("Cn1cc(-c2ccc(-c3cnc(N)c4ccc(C(=O)N5CCNCC5)nc34)cc2)cn1")
"< 10 µL/min/mg"
>>> test_value("CNC(=O)c1ccc2cncc(-c3ccc(-c4cnn(C)c4)cc3)c2n1")
"> 1000 µL/min/mg"

====

Assay: in vitro
Conditions: mouse, microsomes
Outcome Measure: microsomal CLint at 1 µM (µL/min/mg)

>>> test_value("Cn1cc(-c2ccc(-c3cnc(N)c4ccc(C(=O)N5CCCC5)nc34)cc2)cn1 [Compound 56]")
81
>>> test_value("CC(=O)Nc1ccc2cncc(-c3ccc(-c4cnn(C)c4)cc3)c2c1 [Compound 31]")
200
>>> test_value("Cn1cc(-c2ccc(-c3cnc(N)c4ccc(C(=O)N5CC(F)(F)C5)cc34)cc2)cn1 [Compound 61]")
78
>>> test_value("Cn1cc(-c2ccc(-c3cncc4ccc(-c5ncco5)nc34)cc2)cn1 [Compound 25]")
200
>>> test_value("Cn1cc(-c2ccc(-c3cncc4ccc(N5CCNC5=O)nc34)cc2)cn1 [Compound 20]")
246
>>> test_value("Cn1cc(-c2ccc(-c3cncc4ccc(N5CCCS5(=O)=O)cc34)cc2)cn1 [Compound 35]")
213
>>> test_value("Cn1cc(-c2ccc(-c3cnc(N)c4ccc(C(=O)N5CCC5)cc34)cc2)cn1 [Compound 58]")
23
>>> test_value("Cn1cc(-c2ccc(-c3cnc(N)c4ccc(C(=O)N5CCC5)nc34)cc2)cn1 [Compound 52]")
61

====

Experiment: in vitro
Details: mouse, microsomes
Outcome Measure: microsomal CLint at 1 µM (µL/min/mg)

>>> test_value("CNC(=O)c1ccc2cncc(-c3ccc4cnn(C)c4c3)c2n1 [Compound 6]")
333
>>> test_value("COC1CN(C(=O)c2ccc3cncc(-c4ccc(-c5cnn(C)c5)cc4)c3c2)C1 [Compound 29]")
403
>>> test_value("Cn1cc(-c2ccc(-c3cncc4ccc(C(=O)N5CCOCC5)nc34)cc2)cn1 [Compound 16]")
83
>>> test_value("Cn1cc(-c2ccc(-c3cncc4ccc(C(=O)NC5CC5)cc34)cc2)cn1 [Compound 28]")
141
>>> test_value("Cn1cc(-c2ccc(-c3cncc4ccc(C(=O)N5CC(F)(F)C5)cc34)cc2)cn1 [Compound 30]")
321
